# growth inhibition per record follows
test_method_notes: NCI Yeast Anticancer Drug Screen. Data for the mgt1 strain (AID 153)
condition_summary: S. cerevisiae mgt1 mutant growth inhibition; at 3.7 µM; active compounds read high
This is part of a sample that, as a whole, favours compounds with a hit. Of some 79,000 tested, about 15% had one in any assay.
Respond with the bare value in %.

These solved cases illustrate the format of a correct answer.
Field growth inhibition (entry `Cc1nc2ccc(N=NN(C)C)cc2[nH]1` ) reads 3

Field growth inhibition (entry `Cc1cc(NCCCCCCCCNc2cc(C)nc3cc(N)ccc23)c2ccc(N)cc2n1` ) reads -79

Field growth inhibition (entry CC1CC[C@]2(C(=O)O)CCC3(C)C(=CC(=O)C4[C@@]5(C)CCC(=O)C(C)(C)C5CC[C@]43C)[C@@H]2[C@H]1C (stereo not given in full) ) reads 9

Field growth inhibition (entry `Oc1ccc(SCc2ccc(NCc3ccccc3)cc2)cc1` ) reads 7

With those in mind, consider the next compound.
Field growth inhibition (entry `CCOC(=O)c1cc([N+](=O)[O-])c(Sc2ncnc3nc[nH]c23)c([N+](=O)[O-])c1` ) reads -29
